test: inhibitors of Toxoplasma growth in IFN-γ-primed HeLa – cell-based, ME49Luc, luciferase, 72 h, dose response (AID 1259418); conditions: T. gondii ME49Luc in IFN-y HeLa, stronger effect = lower value, -100% = high-dose IFN-γ control wells; at 19.5 µM unless noted
The whole screen tested about 3,400 compounds, of which about 840 (25%) were called active. Not shown: some 11% with an inconclusive outcome. A selection follows. Results with a measured potency or affinity are listed apart.
Measurement kind: max activity

Molecule	max activity
COc1ccc(S(=O)(=O)N2CCC[C@@H]2C(=O)NCCc2csc(C)n2)cc1Cl	8.05% [at 10 µM] (inactive)
N#CCSC1=Nc2ccccc2C2=NC(CC(=O)NC3CCCCC3)C(=O)N12 (centres undefined)	23.6% [at 10 µM] (inactive)
O=C(NCCN1CCCC1)[C@H]1[C@H](CO)[C@H]2Cn3c(cccc3=O)[C@H]2N1Cc1ccccn1	48.1% (inactive)
COc1ccc(-c2nc(N3CCN(Cc4ccc5c(c4)OCO5)CC3)c3ccccc3n2)cc1	17.4% [at 2.6 µM] (inactive)
CCn1nnc2c(NCCSc3c[nH]c4ccccc34)ncnc21	-13.5% [at 0.68 µM] (inactive)
O=C(NCCc1c[nH]c2ccccc12)C1CCN(c2ncnc3c2oc2ccccc23)CC1	11.9% [at 0.68 µM] (inactive)

Ask: max activity lookup needed for COc1ccc(-c2nc(N3CCN(c4ccc(F)cc4)CC3)c3ccccc3n2)cc1 , thanks.
Result: 13.7% [at 10 µM] (inactive)

Ask: Cool, now Cc1ccc(C)c(-c2coc(-c3ccc(NC(=O)Nc4ccc5c(c4)OCCO5)cc3)n2)c1
Result: 196% [at 5 µM] (inactive)

Ask: Cool, now COc1ccccc1CNC(=O)CCC1N=C2c3ccccc3N=C(SCc3cc(=O)n4ccccc4n3)N2C1=O (centres undefined)
Result: -7.46% [at 0.16 µM] (inactive)
